test: Therapeutic index, ratio of cytotoxicity against african green monkey Vero cells to antiviral activity against Measles virus; type: cell-based; conditions: read-out: TI
property-measured: selectivity ratio

> print(dat)
                               smiles.input  measured.value
1  O[C@H]1[C@H]2c3cc4c(cc3CN3CCC(=C[C@@H]1O)[C@H]23)OCO4              10

----------
test: Therapeutic index, ratio of cytotoxicity against african green monkey Vero cells to antiviral activity against Poliovirus; assay type: cell-based; conditions: read-out: TI
property-measured: selectivity ratio

> print(dat)
                               smiles.input  property.measured  measured.value
1  O[C@H]1[C@H]2c3cc4c(cc3CN3CCC(=C[C@@H]1O)[C@H]23)OCO4  selectivity ratio              10

Reference source for all entries: ChEMBL document CHEMBL1151400
